test system: bovine tubulin; test: In vitro tubulin polymerization assay (turbidity at 340 nm); type: biochemical; settings: 10 μM compound, 30 minute data point, vs 1% DMSO control
Entry flag: class 1 if Tubulin Assay: percent inhibition at 10 μM based on 30 minute data reaches 70%; class 0 if it does not.

Please review the entries below; each comes with its answer.
{"columns": ["Compound", "Experimental target", "Label value"],
 "data": [
  ["COc1ccc(CNc2ncccc2-c2nnc(Nc3ccc4c(c3)OCCO4)o2)cc1", "bovine tubulin", "class 1"],
  ["CS(=O)(=O)c1ccc(-c2nnc(-c3cccnc3NCc3ccc(F)cc3)[nH]2)cc1", "bovine tubulin", "class 1"],
  ["c1coc(CNc2ncccc2-c2nnc(Nc3ccc4c(c3)OCCO4)o2)c1 [Compound 205]", "bovine tubulin", "class 0"]
]}

Enquiry: Entry CS(=O)(=O)c1ccc(-c2nnc(-c3cccnc3NCc3cccc(F)c3)[nH]2)cc1 : is its Tubulin Assay: percent inhibition at 10 μM based on 30 minute data no less than 70%?
Return: class 0

Enquiry: Entry Nc1ccccc1-c1nnc(Nc2ccc3c(c2)OCO3)o1 [Compound 237a] : is its Tubulin Assay: percent inhibition at 10 μM based on 30 minute data no less than 70%?
Return: class 0

Enquiry: Entry FC(F)(F)c1ccc(-c2nnc(-c3ccccc3NCc3ccc4c(c3)OCO4)[nH]2)cc1 : is its Tubulin Assay: percent inhibition at 10 μM based on 30 minute data no less than 70%?
Return: class 0

###

tested on: bovine tubulin; assay: In vitro tubulin polymerization assay (turbidity at 340 nm); type: biochemical; settings: 10 μM compound, 30 minute data point, vs 1% DMSO control
Metric name: Tubulin Assay: percent inhibition at 10 μM based on 30 minute data

Previously resolved entries follow.
{"columns": ["Compound", "Experimental target", "Readout value"],
 "data": [
  ["c1cnc(Nc2ccc3c(c2)OCO3)c(-c2nnc(Nc3ccc4c(c3)OCO4)[nH]2)c1", "bovine tubulin", "54%"],
  ["c1cncc(CCNc2ncccc2-c2nnc(Nc3ccc4c(c3)OCO4)o2)c1", "bovine tubulin", "68%"],
  ["c1ccc(-c2nnc(Nc3ccc4c(c3)OCCO4)o2)c(NCc2cncnc2)c1", "bovine tubulin", "94%"],
  ["c1ccc(-c2nnc(Nc3ccc4c(c3)OCCO4)[nH]2)c(NCc2ccc3[nH]ncc3c2)c1", "bovine tubulin", "84%"]
]}

Hey, bovine tubulin data for COc1cccc(Nc2nnc(-c3cccnc3Nc3cc(OC)cc(OC)c3)o2)c1 : Tubulin Assay: percent inhibition at 10 μM based on 30 minute data came out at 27%

Hey, bovine tubulin data for c1cnc(NCC2CCCO2)c(-c2nnc(Nc3ccc4c(c3)OCO4)o2)c1 (centres unmarked) : Tubulin Assay: percent inhibition at 10 μM based on 30 minute data came out at 64%

Hey, bovine tubulin data for Brc1ccc(-c2nnc(-c3ccccc3NCc3ccc4[nH]ncc4c3)[nH]2)cc1 : Tubulin Assay: percent inhibition at 10 μM based on 30 minute data came out at 58%

Hey, bovine tubulin data for CS(=O)(=O)c1ccc(-c2nnc(-c3cccnc3NCc3ccc4c(c3)OCO4)[nH]2)cc1 : Tubulin Assay: percent inhibition at 10 μM based on 30 minute data came out at 28%

###

Tested on: A431, human epidermoid carcinoma cells
Experiment: Cell cycle analysis (FACS), mitotic arrest in G2/M
Format: cell-based
Details: Homo sapiens, A-431, 24 h, read-out: FACS Assay: concentration required to achieve inhibition in FACS assay
Experimental: The cell cycle analysis was performed as follows. Cancer cells (A431, human epidennoid carcinoma cells) were maintained in culture in D-MEM media with 10% FBS and 1 mg/ml glutamate. […] DNA ploidy was analyzed using flow cytometers (Epics Excel, Beckman-Coulter, or Guava PCA-96, Guava Technologies) and mitotic arrest characterized by massive accumulation of cells in the G2/M phase of cell cycle. […]
Recorded minimal effective concentration values for a group of compounds are listed next.
# value in µM; strip the unit string

{"columns": ["Compound", "Readout unit", "minimal effective concentration"],
 "data": [
  ["COc1cc(CNc2ccccc2-c2cnc(Nc3ccc4c(c3)OCCO4)o2)cc(OC)c1", "µM", 1],
  ["COc1cc(Nc2ncccc2-c2nnc(Nc3ccc4c(c3)OCCO4)[nH]2)cc(OC)c1", "µM", 0.1],
  ["COc1cccc(-c2nnc(-c3cccnc3NCc3ccc(F)c(F)c3)[nH]2)c1", "µM", 10],
  ["CS(=O)(=O)c1ccc(-c2nnc(-c3cccnc3NCC3COCCO3)[nH]2)cc1 (centres unmarked)", "µM", 1]
]}

Now look at this entry.
Note to self: minimal effective concentration recorded for COc1cccc(Nc2nnc(-c3cccnc3NCc3ccc4c(c3)OCO4)[nH]2)c1 was 1
